- experimental-protocol: NCI Yeast Anticancer Drug Screen. Data for the bub3 strain (AID 167)
- conditions: S. cerevisiae bub3 mutant strain, at 50.0 µM, active compounds read high
About 79,000 compounds went through this panel and 15% of them were active in at least one assay; those are over-represented in the sample as a whole. The source made the active and inactive calls. Rule as the data show it: active = growth inhibition above about 70%; inactive = the rest.
endpoint-label: growth inhibition

Examples with their reported growth inhibition follow.
# molecule, endpoint-label, test-result
rows = [
    ("C#CCSc1nnnn1-c1ccc(Br)c(C)c1", "growth inhibition", "32.6% (inactive)"),
    ("COc1ccc2c(c1)CCc1c-2n[nH]c1-c1[nH]nc2c1CCc1cc(OC)ccc1-2", "growth inhibition", "-16.1% (inactive)"),
]

Input COc1ccccc1C1OC2=Nc3cc(C)c(C)cc3NC2C1=O (stereo unspecified) . Output growth inhibition: -21.1% (inactive)

Sure, the documented growth inhibition for COC(=O)Nc1nc2ccc(C(=O)c3ccc(F)cc3)cc2[nH]1 is -17.5% (inactive)

Consider O=C(O)c1cccc([N+](=O)[O-])c1 . Its measured growth inhibition is -23.1% (inactive)

Input Cc1cc2nc(CC(=O)c3ccccc3)c(=O)[nH]c2cc1C . Output growth inhibition: -15.7% (inactive)
